Recorded protein stability index by entry
B1: DLC1 (parent)
chain: NDDSADYQHFLQDCVDGLFKEVKE

- Variants of: B1
- assayExplanation: protein stability index of a GFP-peptide fusion (GPS, HEK-293T) (PSI 1-6); higher = more stable;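 also: lentivirally expressed fusions sorted by FACS into six bins by GFP to DsRed ratio, PSI derived from sequencing read proportions per bin multiplied by bin number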
- conditionNotes: c terminus: a fixed tail appended
# answer = number (no unit)

> print(dat)
   variantdescription  measurement
1                L11T         4.94
2                D13S          2.2
3                Q12P         4.15
4                 Y7N         5.14

-- ask Field request: protein stability index | item: C14S
-- reply 4.91

-- ask Moving on to the next variant: V15L
-- reply 3.34

-- ask Moving on to the next variant: V15M
-- reply 4.34

-- ask Moving on to the next variant: K20L
-- reply 2.87

-- ask Moving on to the next variant: F19V
-- reply 2.89

-- ask Moving on to the next variant: D16S
-- reply 3.22

Reference for the values: the supplement of paper PMC10567573
